Entries with reported Ki on Somatostatin receptor type 5 (Homo sapiens)
Sequence (P35346 whole entry): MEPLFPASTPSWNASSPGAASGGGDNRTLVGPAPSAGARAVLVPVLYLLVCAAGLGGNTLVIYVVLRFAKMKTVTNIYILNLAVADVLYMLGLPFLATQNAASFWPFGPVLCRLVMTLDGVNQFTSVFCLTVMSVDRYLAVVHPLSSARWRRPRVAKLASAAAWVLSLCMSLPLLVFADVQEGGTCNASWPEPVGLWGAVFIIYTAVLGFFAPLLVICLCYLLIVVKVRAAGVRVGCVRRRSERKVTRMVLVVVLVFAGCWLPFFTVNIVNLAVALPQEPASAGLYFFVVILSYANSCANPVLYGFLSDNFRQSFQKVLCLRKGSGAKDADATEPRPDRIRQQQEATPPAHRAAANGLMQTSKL
quantityMeasured: Ki

smilesEntry: C[C@@H]1NC(=O)[C@H](CCCCN)NC(=O)[C@@H](Cc2c[nH]c3ccccc23)NC(=O)[C@H](Cc2cccnc2)NC(=O)[C@H](NC(=O)[C@@H](N)Cc2ccc3ccccc3c2)CSSC[C@@H](C(=O)N[C@@H](Cc2ccc3ccccc3c2)C(N)=O)NC1=O
targetOrTestSystem: Somatostatin receptor type 5 (Homo sapiens)
result: 1860 nM

smilesEntry: CC(C)C[C@@H]1NC(=O)[C@H](CCCCN)NC(=O)[C@@H](Cc2c[nH]c3ccccc23)NC(=O)[C@H](Cc2cccnc2)NC(=O)[C@H](NC(=O)[C@@H](N)Cc2ccc3ccccc3c2)CSSC[C@@H](C(=O)N[C@@H](Cc2ccc3ccccc3c2)C(N)=O)NC1=O
targetOrTestSystem: Somatostatin receptor type 5 (Homo sapiens)
result: 968 nM

smilesEntry: CC(C)[C@@H]1NC(=O)[C@H](CCCCN)NC(=O)[C@@H](Cc2c[nH]c3ccccc23)NC(=O)[C@@H](Cc2ccccn2)NC(=O)[C@H](NC(=O)[C@@H](N)Cc2c(F)c(F)c(F)c(F)c2F)CSSC[C@@H](C(=O)N[C@@H](Cc2c(F)c(F)c(F)c(F)c2F)C(N)=O)NC1=O
targetOrTestSystem: Somatostatin receptor type 5 (Homo sapiens)
result: 1380 nM
